Target: T1, cynomolgus CCR8 (cynomolgus, UniProt G7NYJ2 1-355)
T1 construct: whole, on cells
T1 sequence (G7NYJ2 entry or part of it): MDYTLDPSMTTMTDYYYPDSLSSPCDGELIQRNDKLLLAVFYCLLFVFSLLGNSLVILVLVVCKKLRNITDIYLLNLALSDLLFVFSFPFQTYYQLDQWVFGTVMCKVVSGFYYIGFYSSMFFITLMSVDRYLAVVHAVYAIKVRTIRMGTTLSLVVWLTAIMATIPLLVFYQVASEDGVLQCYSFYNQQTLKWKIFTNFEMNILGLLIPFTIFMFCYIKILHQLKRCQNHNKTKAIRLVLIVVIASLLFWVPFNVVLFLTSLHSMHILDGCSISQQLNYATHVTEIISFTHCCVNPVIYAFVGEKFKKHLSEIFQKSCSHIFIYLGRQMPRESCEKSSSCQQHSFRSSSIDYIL
Test: FACS on HEK293-cynomolgus CCR8 cells
# reported Max MFI; entries follow
Enter your answer as a number in MFI; do not include the unit.

Use the examples below as a reference point.
Hu149-19 (antibody, human IgG1, V domains shown, human IgG1) VH: EVQLVESGGGLVQPGGSLKLSCAASGFTFNTYAMNWVRQASGKGLEWVGRIRSKSNFYATAYAASVKGRFTISRDDSKNTAYLQMNSLKTEDTAVYYCTRGREYGSSYAMDYWGQGTLVTVSS VL: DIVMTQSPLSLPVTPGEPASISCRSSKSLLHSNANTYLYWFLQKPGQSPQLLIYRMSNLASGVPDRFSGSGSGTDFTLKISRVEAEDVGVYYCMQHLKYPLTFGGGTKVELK :: 3.95e+06
Hu149-18 (antibody, human IgG1, V domains shown, human IgG1) VH: EVQLVESGGGLVQPGGSLKLSCAASGFTFNTYAMNWVRQASGKGLEWVGRIRSKSNFYATAYAASVKGRFTISRDDSKNTAYLQMNSLKTEDTAVYYCTRGRDYGSSYAMDYWGQGTLVTVSS VL: DIVMTQSPLSLPVTPGEPASISCRSSKSLLHSNANTYLYWFLQKPGQSPQLLIYRMSNLASGVPDRFSGSGSGTDFTLKISRVEAEDVGVYYCMQHLRYPLTFGGGTKVELK :: 4.15e+06
Hu149-20 (antibody, human IgG1, V domains shown, human IgG1) VH: EVQLVESGGGLVQPGGSLKLSCAASGFTFNTYAMNWVRQASGKGLEWVGRIRSKSNFYATAYAASVKGRFTISRDDSKNTAYLQMNSLKTEDTAVYYCTRGKEYGSSYAMDYWGQGTLVTVSS VL: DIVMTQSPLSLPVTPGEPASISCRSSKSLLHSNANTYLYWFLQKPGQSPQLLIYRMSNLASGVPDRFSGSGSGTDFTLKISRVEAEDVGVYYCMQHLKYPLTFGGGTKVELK :: 4.02e+06

Short answer for Hu149-17 (antibody, human IgG1, V domains shown, human IgG1) VH: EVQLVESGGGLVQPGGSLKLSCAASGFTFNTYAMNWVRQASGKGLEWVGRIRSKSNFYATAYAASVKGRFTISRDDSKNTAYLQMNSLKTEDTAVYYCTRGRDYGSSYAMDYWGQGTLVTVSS VL: DIVMTQSPLSLPVTPGEPASISCRSSKSLLHSNANTYLYWFLQKPGQSPQLLIYRMSNLASGVPDRFSGSGSGTDFTLKISRVEAEDVGVYYCMQHLSYPLTFGGGTKVELK : Max MFI was 4.11e+06

Query Hu149-9 (antibody, human IgG1, V domains shown, humanized, human IgG1; also called Hu149-9 HuIgG1) VH: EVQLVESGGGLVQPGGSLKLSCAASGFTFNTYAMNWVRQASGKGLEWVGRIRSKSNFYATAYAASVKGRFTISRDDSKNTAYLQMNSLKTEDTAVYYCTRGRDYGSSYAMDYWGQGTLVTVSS VL: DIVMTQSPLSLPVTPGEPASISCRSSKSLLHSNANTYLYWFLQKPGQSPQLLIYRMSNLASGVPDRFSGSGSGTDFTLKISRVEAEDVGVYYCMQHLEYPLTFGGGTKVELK yields Max MFI of 3.53e+06
